These measurements were taken from a melting point compilation (Tetko et al.; mined from patent text by program, amines drawn as free bases though some values may be those of a salt).

The compounds listed here are annotated with their melting point.

// below: answered compounds
INSERT INTO measurements (compound, value) VALUES
  ('Cc1cc2nc(C(=O)NC(Cc3ccc(OCc4ccccc4)cc3)C(=O)O)cn2cc1-c1ccc(Cl)cc1 (stereo unspecified)', '248 to 249 °C'),
  ('CC(C(=O)O)c1ccc(N(C)c2nccs2)cc1 (stereo unspecified)', '121 to 123 °C'),
  ('COC(=O)C(C)(N)Cc1c[nH]c2ccc(Br)cc12 (racemic)', '181 °C'),
  ('CS(=O)(=O)c1ccc(-c2oc(C(=O)O)cc(=O)c2Oc2ccc(F)cc2F)cc1', '245 °C'),
  ('N#CSc1cc2sc(NC(=O)C3CC3)nc2cc1F', '256 °C');

**Q:** Can you share its melting point? I mean this compound: CCCCCCCCCCCCCOc1ccc(CNc2ccc(C(=O)OCC)cc2)cc1
**A:** 95 to 105 °C

**Q:** Can you share its melting point? I mean this compound: O=CC1CC1Nc1nccc(-n2nnc3ccccc32)n1 (stereo unspecified)
**A:** 99 to 100 °C

**Q:** Can you share its melting point? I mean this compound: N#CSc1ccc(N)c(N)c1
**A:** 108 to 110 °C

**Q:** Can you share its melting point? I mean this compound: Cn1ncc2c(=O)[nH]cnc21
**A:** 289 to 290 °C

**Q:** Can you share its melting point? I mean this compound: CNC(=C[N+](=O)[O-])NCCCCc1nc[nH]c1Br
**A:** 145 to 148 °C

**Q:** Can you share its melting point? I mean this compound: O=C1Nc2ccccc2C1CCCCN1CCN(c2ccccn2)CC1 (stereo unspecified)
**A:** 131 to 132 °C
